# study system: Stromelysin-1 (Homo sapiens)
# protocol details: Inhibition of human MMP-3 at 100 uM relative to control
recorded metric: inhibition

Examples with their reported inhibition follow.
{"smiles code": "O=C(CCS)Nc1ccc(Cl)c(Cl)c1", "result": "< 10%"}
{"smiles code": "O=C(CCS)Nc1ccccc1C(=O)O", "result": "17%"}
{"smiles code": "O=C(CCS)Nc1cccc(C(=O)O)c1", "result": "< 10%"}
{"smiles code": "NC(=O)NS(=O)(=O)c1ccc(NC(=O)CCS)cc1", "result": "< 10%"}

Value lookup for inhibition; key = N=C(N)NS(=O)(=O)c1ccc(NC(=O)CCS)cc1
< 10%

// data source = ChEMBL document CHEMBL5046281
